The reported measurements were obtained from PubChem BioAssay (NCATS).

- system name: Glutathione peroxidase 1 (Homo sapiens) (UniProt P07203)
- Sequence (P07203 whole entry, looked up): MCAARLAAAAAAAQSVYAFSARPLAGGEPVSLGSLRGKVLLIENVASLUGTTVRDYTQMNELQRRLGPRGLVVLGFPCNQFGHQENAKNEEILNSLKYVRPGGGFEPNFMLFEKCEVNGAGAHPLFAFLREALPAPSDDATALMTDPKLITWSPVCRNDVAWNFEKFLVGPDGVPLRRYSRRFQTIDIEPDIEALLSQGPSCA
- procedure text: Primary qHTS Assay for Inhibitors of Recombinant Selenoprotein Glutathione Peroxidase 1 (GPX1) (AID 1845191); note: nearly all actives have a fitted effect of over 65% in size
- applied conditions: recombinant GPX1, GR-coupled NADPH fluorescence, 15 min; series mostly up to 48.8 µM
Records with an inconclusive call do not appear. Active and inactive are the calls of the source. Calls come from the whole dose curve; as a rule, active = well fitted inhibition curve with a large enough effect; inconclusive = small, poorly fitted or top-dose-only effect; inactive = flat fitted curve, though single readings scatter.
endpoint name: outcome

# compound, outcome
data = [
    ("CC(C)(S)C(=O)N[C@@H](CS)C(=O)O", "inactive"),
    ("Cc1nc2c(C(F)(F)F)cccc2nc1-c1ccc(-c2cccc(S(C)(=O)=O)c2)cc1", "inactive"),
    ("CN1CC[C@@H](c2c(O)cc(O)c3c(=O)cc(-c4ccc(C(F)(F)F)cc4Cl)oc23)[C@@H]1CO", "inactive"),
    ("O=C(NC1(c2ccccc2)CC1)c1c(CN2CCC(N3CCCCC3)CC2)c(-c2cccc(C(F)(F)F)c2)nc2cc(Br)ccc12", "inactive"),
]

Form field: outcome recorded for COc1ccc(-n2c(SCCCN3C(=O)c4cccc5cccc(c45)C3=O)nnc2-c2ccncc2)cc1 with Glutathione peroxidase 1 (Homo sapiens) (UniProt P07203) (enter value)
inactive

Form field: outcome recorded for Cc1c(C(=O)NCc2cccnc2)nn(-c2ccc(Cl)cc2Cl)c1-c1ccc(Cl)cc1 with Glutathione peroxidase 1 (Homo sapiens) (UniProt P07203) (enter value)
inactive

Form field: outcome recorded for C=C(CCC1C(C)(O)CCC2C(C)(C)C(O)CCC12C)C(O)CO (centres undefined) with Glutathione peroxidase 1 (Homo sapiens) (UniProt P07203) (enter value)
inactive

Form field: outcome recorded for CCC(C)/C=C(C)/C=C/C1=CC2=C(Cl)C(=O)C(C)(OC(C)=O)C(=O)C2(O)C(OC)O1 (centres undefined) with Glutathione peroxidase 1 (Homo sapiens) (UniProt P07203) (enter value)
inactive

Form field: outcome recorded for N#Cc1ccc(COC[C@H]2O[C@@H](n3c(NCc4ccc(Cl)c(Cl)c4)nc4c(N)ncnc43)[C@H](O)[C@@H]2O)cc1 with Glutathione peroxidase 1 (Homo sapiens) (UniProt P07203) (enter value)
inactive

====

- System: HaCat
- procedure text: Cytotoxic Profiling of Annotated Libraries Using Quantitative High-Throughput Screening (AID 1296008); note: nearly all actives have a fitted effect of over 60% in size
- applied conditions: Five cell lines viability, CellTiter-Glo ATP luminescence, 48-72 h
Inconclusive results are not listed. Activity calls are given as the source filed them. Calls come from the whole dose curve; as a rule, active = well fitted inhibition curve with a large enough effect; inconclusive = small, poorly fitted or top-dose-only effect; inactive = flat fitted curve, though single readings scatter.
Reply using exactly one outcome from active, inactive

See these solved cases before continuing.
# compound, system name, answer label
records = [
    ("O=c1[nH]c([C@@H]2CCCN2)nc2c1oc1ccc(Cl)cc12", "HaCat", "active"),
    ("CC[C@H](C)/C=C(C)/C=C/C1=CC2=CC(=O)[C@]3(C)OC(=O)[C@@H](C(C)=O)[C@@H]3C2=CO1", "HaCat", "inactive"),
    ("O=C(Nc1ccc(Cl)cc1)Nc1cccc(-c2cccc(N3CCCC3)n2)c1", "HaCat", "inactive"),
    ("C=CC(C)(C)C12CC3C(=O)N4C(CC5(C(C)(C)C=C)c6ccccc6NC45)C(=O)N3C1Nc1ccccc12 (stereo not given)", "HaCat", "active"),
    ("O=C(Nc1ccccc1Cl)c1cnc2ccc(C3CCNCC3)cn12", "HaCat", "active"),
]

What call does the record list for Cc1cc(NC(=O)NCCN2CCC(O)(Cc3ccccc3)CC2)c2ccccc2n1 ?
inactive

What call does the record list for CC(C)(C)c1ccc2c(c1)CC[C@H]2NC(=O)Nc1cccc2[nH]ncc12 ?
inactive

What call does the record list for CC(C)(O)c1ccc2c(c1)ncn2-c1cccc(-c2ccccc2C#N)c1 ?
inactive

What call does the record list for Cc1cc(C)c(S(=O)(=O)n2cc(C)cc2C)c(C)c1 ?
inactive

What call does the record list for C[C@@H](Nc1ncnc2[nH]c(-c3ccc(O)cc3)cc12)c1ccccc1 ?
active
